Entry source: ChEMBL document CHEMBL2010741

// reported clearance for each item listed
test: Clearance in rat at 1 mg/kg, iv; assay type: ADME, organism-based; design: dose 1 mg/kg, route intravenous; conditions: in vivo
assay-endpoint: clearance (mL/min/kg)

1) O=S(=O)(C1CC1)N1CCC(Oc2ccc3c(c2)CCC2(CCN(C4CCC4)CC2)O3)CC1; 10
2) CS(=O)(=O)N1CCC(Oc2ccc3c(c2)CCC2(CCN(C4CCC4)CC2)O3)CC1; 9
3) CC(C)C(=O)N1CCC(Oc2ccc3c(c2)CCC2(CCN(C4CCC4)CC2)O3)CC1; 18
4) O=C(C1CC1)N1CCC(Oc2ccc3c(c2)CCC2(CCN(C4CCC4)CC2)O3)CC1; 20

* * *

experiment: Half life in rat at 1 mg/kg, iv; assay type: ADME, organism-based; set-up: dose 1 mg/kg, route intravenous; conditions: in vivo
// reported half-life for each item listed
assay-endpoint: half-life (h)

1) CS(=O)(=O)N1CCC(Oc2ccc3c(c2)CCC2(CCN(C4CCC4)CC2)O3)CC1; 0.6
2) O=C(C1CC1)N1CCC(Oc2ccc3c(c2)CCC2(CCN(C4CCC4)CC2)O3)CC1; 1.6
3) O=S(=O)(C1CC1)N1CCC(Oc2ccc3c(c2)CCC2(CCN(C4CCC4)CC2)O3)CC1; 1.8
4) CC(C)C(=O)N1CCC(Oc2ccc3c(c2)CCC2(CCN(C4CCC4)CC2)O3)CC1; 1.1

* * *

test: Oral bioavailability in rat at 5 mg/kg; format: ADME, organism-based; details: in vivo
assay-endpoint: bioavailability

1. O=S(=O)(C1CC1)N1CCC(Oc2ccc3c(c2)CCC2(CCN(C4CCC4)CC2)O3)CC1; 5%
2. CS(=O)(=O)N1CCC(Oc2ccc3c(c2)CCC2(CCN(C4CCC4)CC2)O3)CC1; 4%
3. O=C(C1CC1)N1CCC(Oc2ccc3c(c2)CCC2(CCN(C4CCC4)CC2)O3)CC1; 8%
4. CC(C)C(=O)N1CCC(Oc2ccc3c(c2)CCC2(CCN(C4CCC4)CC2)O3)CC1; 9%

* * *

Heads up, these compounds all have IC50 values measured for Cytochrome P450 3A4 (Homo sapiens).
assay-endpoint: IC50

1. O=C(C1CC1)N1CCC(Oc2ccc3c(c2)CCC2(CCN(C4CCC4)CC2)O3)CC1; > 30 µM
2. CC(=O)N1CCC(Oc2ccc3c(c2)CCC2(CCN(C4CCC4)CC2)O3)CC1; > 30 µM

* * *

assay: Volume of distribution in rat at 1 mg/kg, iv; format: ADME, organism-based; set-up: dose 1 mg/kg, route intravenous; settings: in vivo
assay-endpoint: Vd

1) CS(=O)(=O)N1CCC(Oc2ccc3c(c2)CCC2(CCN(C4CCC4)CC2)O3)CC1; 0.5 L/kg
2) O=C(C1CC1)N1CCC(Oc2ccc3c(c2)CCC2(CCN(C4CCC4)CC2)O3)CC1; 2.7 L/kg
3) CC(C)C(=O)N1CCC(Oc2ccc3c(c2)CCC2(CCN(C4CCC4)CC2)O3)CC1; 1.9 L/kg
4) O=S(=O)(C1CC1)N1CCC(Oc2ccc3c(c2)CCC2(CCN(C4CCC4)CC2)O3)CC1; 1.6 L/kg

* * *

// reported Kp at 1 h for each item listed
test: Ratio of drug level in brain to plasma of rat at 10 mg/kg, ip after 1 hr; format: ADME, organism-based; set-up: dose 10 mg/kg, route intraperitoneal; details: read-out: BPR
assay-endpoint: Kp at 1 h

1. O=C(C1CC1)N1CCC(Oc2ccc3c(c2)CCC2(CCN(C4CCC4)CC2)O3)CC1; 2.3
2. O=S(=O)(C1CC1)N1CCC(Oc2ccc3c(c2)CCC2(CCN(C4CCC4)CC2)O3)CC1; 2
3. CC(C)C(=O)N1CCC(Oc2ccc3c(c2)CCC2(CCN(C4CCC4)CC2)O3)CC1; 2.3
4. CS(=O)(=O)N1CCC(Oc2ccc3c(c2)CCC2(CCN(C4CCC4)CC2)O3)CC1; 1.5

* * *

// reported pKi for each item listed
target: Histamine H3 receptor (Rattus norvegicus, UniProt Q9QYN8)
Sequence (Q9QYN8 whole entry): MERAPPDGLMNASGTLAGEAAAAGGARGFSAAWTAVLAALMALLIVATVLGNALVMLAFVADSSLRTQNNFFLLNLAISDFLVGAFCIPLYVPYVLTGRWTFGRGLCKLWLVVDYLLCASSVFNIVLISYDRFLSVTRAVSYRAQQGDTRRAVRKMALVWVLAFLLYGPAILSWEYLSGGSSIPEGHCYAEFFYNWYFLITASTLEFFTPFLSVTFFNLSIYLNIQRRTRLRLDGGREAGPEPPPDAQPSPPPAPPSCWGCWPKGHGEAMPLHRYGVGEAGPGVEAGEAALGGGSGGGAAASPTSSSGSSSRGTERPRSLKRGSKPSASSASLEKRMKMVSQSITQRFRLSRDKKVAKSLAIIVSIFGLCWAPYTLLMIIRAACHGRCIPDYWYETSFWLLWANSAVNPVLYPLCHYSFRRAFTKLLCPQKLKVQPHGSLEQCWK
pKi: −log10 of the molar value.
assay-endpoint: pKi

1) c1cc2c(cc1OC1CCNCC1)CCC1(CCN(C3CCC3)CC1)O2; 8.22
2) CC(C)(C)OC(=O)N1CCC(Oc2ccc3c(c2)CCC2(CCN(C4CCC4)CC2)O3)CC1; 7.40
3) CC(=O)N1CCC(Oc2ccc3c(c2)CCC2(CCN(C4CCC4)CC2)O3)CC1; 8.00
4) CC(C)S(=O)(=O)N1CCC(Oc2ccc3c(c2)CCC2(CCN(C4CCC4)CC2)O3)CC1; 7.57
5) CCS(=O)(=O)N1CCC(Oc2ccc3c(c2)CCC2(CCN(C4CCC4)CC2)O3)CC1; 7.62

* * *

molecular target: UniProtKB P11712
Sequence (P11712 whole entry): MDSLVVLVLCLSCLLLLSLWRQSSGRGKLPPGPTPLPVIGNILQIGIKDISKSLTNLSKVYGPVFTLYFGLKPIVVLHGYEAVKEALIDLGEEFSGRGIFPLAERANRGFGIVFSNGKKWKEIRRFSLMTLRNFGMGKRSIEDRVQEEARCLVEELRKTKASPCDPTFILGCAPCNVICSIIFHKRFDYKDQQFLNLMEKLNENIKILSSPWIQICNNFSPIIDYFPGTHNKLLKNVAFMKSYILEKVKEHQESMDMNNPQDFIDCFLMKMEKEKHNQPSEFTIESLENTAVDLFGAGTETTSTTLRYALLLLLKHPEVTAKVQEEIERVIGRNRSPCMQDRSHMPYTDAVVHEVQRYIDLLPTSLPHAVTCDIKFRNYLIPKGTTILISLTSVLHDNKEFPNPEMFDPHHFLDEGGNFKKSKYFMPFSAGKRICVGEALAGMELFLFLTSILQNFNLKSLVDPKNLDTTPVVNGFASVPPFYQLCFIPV
// reported IC50 for each item listed
assay-endpoint: IC50

1) CS(=O)(=O)N1CCC(Oc2ccc3c(c2)CCC2(CCN(C4CCC4)CC2)O3)CC1; > 30 µM
2) O=C(C1CC1)N1CCC(Oc2ccc3c(c2)CCC2(CCN(C4CCC4)CC2)O3)CC1; > 30 µM
3) CC(C)C(=O)N1CCC(Oc2ccc3c(c2)CCC2(CCN(C4CCC4)CC2)O3)CC1; > 30 µM

* * *

target: Cytochrome P450 2D6 (Homo sapiens, UniProt P10635)
Sequence (P10635 whole entry): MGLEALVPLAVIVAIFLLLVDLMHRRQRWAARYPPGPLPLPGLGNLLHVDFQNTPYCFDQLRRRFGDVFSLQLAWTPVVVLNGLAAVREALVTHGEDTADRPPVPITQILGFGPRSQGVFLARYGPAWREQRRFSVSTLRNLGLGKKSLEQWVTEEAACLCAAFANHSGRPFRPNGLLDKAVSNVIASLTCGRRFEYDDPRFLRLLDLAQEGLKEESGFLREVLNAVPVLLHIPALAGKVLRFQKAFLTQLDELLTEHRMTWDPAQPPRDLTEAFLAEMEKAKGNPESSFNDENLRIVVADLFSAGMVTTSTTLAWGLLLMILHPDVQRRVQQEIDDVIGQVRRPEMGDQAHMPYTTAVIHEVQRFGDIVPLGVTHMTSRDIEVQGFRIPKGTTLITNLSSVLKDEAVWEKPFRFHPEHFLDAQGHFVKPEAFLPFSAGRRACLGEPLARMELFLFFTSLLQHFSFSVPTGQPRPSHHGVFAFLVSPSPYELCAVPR
assay-endpoint: IC50

1. CC(=O)N1CCC(Oc2ccc3c(c2)CCC2(CCN(C4CCC4)CC2)O3)CC1; > 30 µM
2. O=C(C1CC1)N1CCC(Oc2ccc3c(c2)CCC2(CCN(C4CCC4)CC2)O3)CC1; > 30 µM

* * *

experiment: Cmax in rat at 5 mg/kg, po; format: ADME, organism-based; design: dose 5 mg/kg, route oral; settings: in vivo
assay-endpoint: Cmax

1) O=S(=O)(C1CC1)N1CCC(Oc2ccc3c(c2)CCC2(CCN(C4CCC4)CC2)O3)CC1; 76 ng/mL
2) CS(=O)(=O)N1CCC(Oc2ccc3c(c2)CCC2(CCN(C4CCC4)CC2)O3)CC1; 83 ng/mL
3) CC(C)C(=O)N1CCC(Oc2ccc3c(c2)CCC2(CCN(C4CCC4)CC2)O3)CC1; 80 ng/mL
4) O=C(C1CC1)N1CCC(Oc2ccc3c(c2)CCC2(CCN(C4CCC4)CC2)O3)CC1; 71 ng/mL
